targetUnderTest: WT CFTR (Homo sapiens, UniProt P13569)
Construct: expressed in transfected cells; host or cells: Xenopus laevis oocytes injected with cRNA transcribed from pGEMHE-CFTR
Sequence (P13569 whole entry): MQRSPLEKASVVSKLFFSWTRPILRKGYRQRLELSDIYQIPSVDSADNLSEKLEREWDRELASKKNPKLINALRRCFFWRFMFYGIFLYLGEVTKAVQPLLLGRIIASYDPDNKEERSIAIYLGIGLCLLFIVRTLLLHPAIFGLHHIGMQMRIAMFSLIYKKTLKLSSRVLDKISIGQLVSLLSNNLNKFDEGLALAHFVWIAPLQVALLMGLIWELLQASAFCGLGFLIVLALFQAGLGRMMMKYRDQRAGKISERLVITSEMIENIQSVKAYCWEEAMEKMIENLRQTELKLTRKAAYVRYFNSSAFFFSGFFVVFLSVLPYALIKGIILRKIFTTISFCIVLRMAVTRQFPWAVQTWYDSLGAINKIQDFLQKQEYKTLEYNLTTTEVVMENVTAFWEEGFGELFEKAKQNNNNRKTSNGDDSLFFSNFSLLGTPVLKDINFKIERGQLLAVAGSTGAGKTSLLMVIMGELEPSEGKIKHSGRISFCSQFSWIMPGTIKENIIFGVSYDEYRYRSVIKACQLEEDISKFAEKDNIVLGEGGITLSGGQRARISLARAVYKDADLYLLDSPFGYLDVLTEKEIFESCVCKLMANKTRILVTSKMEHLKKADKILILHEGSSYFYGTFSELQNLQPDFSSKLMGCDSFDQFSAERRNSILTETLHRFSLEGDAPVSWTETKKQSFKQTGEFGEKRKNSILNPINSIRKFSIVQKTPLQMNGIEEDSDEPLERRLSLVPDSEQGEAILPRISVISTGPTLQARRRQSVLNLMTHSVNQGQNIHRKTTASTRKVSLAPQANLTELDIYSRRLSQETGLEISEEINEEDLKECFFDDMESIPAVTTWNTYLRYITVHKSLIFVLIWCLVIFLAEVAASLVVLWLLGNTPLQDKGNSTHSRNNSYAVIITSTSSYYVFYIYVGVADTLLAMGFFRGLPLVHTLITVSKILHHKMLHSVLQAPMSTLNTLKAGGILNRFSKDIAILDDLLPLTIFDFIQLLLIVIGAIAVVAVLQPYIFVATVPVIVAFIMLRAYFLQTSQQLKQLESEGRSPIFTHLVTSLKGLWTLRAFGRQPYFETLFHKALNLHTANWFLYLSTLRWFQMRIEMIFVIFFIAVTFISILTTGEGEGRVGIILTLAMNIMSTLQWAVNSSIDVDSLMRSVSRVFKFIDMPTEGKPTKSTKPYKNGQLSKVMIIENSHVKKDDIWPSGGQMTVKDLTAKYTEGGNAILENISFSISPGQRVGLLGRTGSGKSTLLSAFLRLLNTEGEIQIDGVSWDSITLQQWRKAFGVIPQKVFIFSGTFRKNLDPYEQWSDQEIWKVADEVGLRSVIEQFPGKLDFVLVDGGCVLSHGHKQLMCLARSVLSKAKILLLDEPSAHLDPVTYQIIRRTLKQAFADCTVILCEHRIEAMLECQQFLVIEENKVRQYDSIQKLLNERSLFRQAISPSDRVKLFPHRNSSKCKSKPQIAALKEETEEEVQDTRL
assayMethodText: Ensemble fitting of gating models (Schemes 3 and 4) to on-off current time courses
Format: biochemical
assayContext: Scheme 3, average of three fits; calculated from fit parameters; read-out: Kd;mem
pKd: −log10 of the molar value.
measureName: pKd

CC(C)(C)c1cc(C(C)(C)C)c(NC(=O)c2c[nH]c3ccccc3c2=O)cc1O [Vx-770, ivacaftor]; 5.06

----------
targetUnderTest: WT CFTR (Homo sapiens, UniProt P13569)
Construct: expressed in transfected cells; host or cells: Xenopus laevis oocytes injected with cRNA transcribed from pGEMHE-CFTR
assayMethodText: Ensemble fitting of gating models (Schemes 3 and 4) to on-off current time courses
Format: biochemical
assayContext: Scheme 4, average of three fits; calculated from fit parameters; read-out: Kd;mem
pKd: −log10 of the molar value.
measureName: pKd

CC(C)(C)c1cc(C(C)(C)C)c(NC(=O)c2c[nH]c3ccccc3c2=O)cc1O; 5.51

src = paper PMC6594753
